The values you see were collected from ChEMBL document CHEMBL1131286.

Below is a list of entries, each paired with its recorded log10 IC50 value.
# Tgt: Muscarinic acetylcholine receptor
# Test method notes: Muscarinic acetylcholine receptor binding assay was conducted using [3H]cis-methyldioxolane (CMD) to label agonist sites in membrane preparations from rat neocortex
Measurement kind: log10 IC50 (log10 of the value in nM)

INSERT INTO measurements (compound, measurement_kind, observed) VALUES
  ('CO/N=C1\CN2CCC1C2 (stereo unspecified)', 'log10 IC50', 1.26),
  ('C(#Cc1ccsc1)CO/N=C1\CN2CCC1C2 (stereo unspecified)', 'log10 IC50', 1.22),
  ('C(#Cc1cccs1)CO/N=C1\CN2CCC1C2 (stereo unspecified)', 'log10 IC50', 1.13),
  ('C#C/C=C/CO/N=C1\CN2CCC1C2 (stereo unspecified)', 'log10 IC50', 1.54),
  ('C=CCO/N=C1\CN2CCC1C2 (stereo unspecified)', 'log10 IC50', 1.72),
  ('C#CCC#CCC#CCO/N=C1\CN2CCC1C2 (stereo unspecified)', 'log10 IC50', 0.91),
  ('C#CCO/N=C1\CN2CCC1C2 (stereo unspecified)', 'log10 IC50', 0.54),
  ('C#C/C(C)=C\CO/N=C1\CN2CCC1C2 (stereo unspecified)', 'log10 IC50', 0.01),
  ('C#C/C(C)=C/CO/N=C1\CN2CCC1C2 (stereo unspecified)', 'log10 IC50', 0.63),
  ('C#CCC#CCO/N=C1\CN2CCC1C2 (stereo unspecified)', 'log10 IC50', 1.34),
  ('CC(C)=CCO/N=C1\CN2CCC1C2 (stereo unspecified)', 'log10 IC50', 0.85);
